The reported numbers originate from patent US5599791A.

Test system: Staph. epidermidis L147 ATCC 12228
Assay: MIC, microbroth dilution
Format: cell-based
Details: inocula 10^4 to 10^5 CFU/ml, Iso-Sensitest broth, 18-24 h, 37° C.
Description: MIC for Propionibacterium aches, and Bacteroides fragilis are determined by agar dilution (inocula 10^4 /10^5 CFU/spot). MIC for other organisms are determined by microbroth dilution (inocula 10^4 to 10^5 CFU/ml). Incubation times are 18-24 h, except for Haemophilus influenzae, P. acnes, B. fragilis (48 h). All organisms are incubated at 37° C.; H. influenzae is incubated in a 5% CO2 atmosphere, anaerobes in an anaerobic gas mixture. […]
Property measured: MIC (microgram/ml)

Below, 2 molecules whose answers are already recorded.
query: Need MIC of CNC(=O)CC1NC(=O)c2nc(sc2CO)C(C(C)C)NC(=O)c2csc(n2)-c2ccc(-c3nc(C(=O)NCCCCCC(=O)O)cs3)nc2-c2csc(n2)-c2csc(n2)C(C(O)c2ccccc2)NC(=O)CNC(=O)c2nc1sc2C (stereo not shown) [Compound 44] , thanks.
result: 0.5

query: Need MIC of CNC(=O)CC1NC(=O)c2nc(sc2COC)C(C(C)C)NC(=O)c2csc(n2)-c2ccc(-c3nc(C(=O)NC(CCCN)C(=O)O)cs3)nc2-c2csc(n2)-c2csc(n2)C(C(O)c2ccccc2)NC(=O)CNC(=O)c2nc1sc2C.O=C(O)C(F)(F)F (stereo not shown) [Compound 2] , thanks.
result: 0.25

(1) CNC(=O)CC1NC(=O)c2nc(sc2COC)C(C(C)C)NC(=O)c2csc(n2)-c2ccc(-c3nc(C(=O)NC(Cc4ccccc4)C(=O)O)cs3)nc2-c2csc(n2)-c2csc(n2)C(C(O)c2ccccc2)NC(=O)CNC(=O)c2nc1sc2C (stereo not shown) [Compound 7]
(2) CNC(=O)CC1NC(=O)c2nc(sc2COC)C(C(C)C)NC(=O)c2csc(n2)-c2ccc(-c3nc(C(=O)NCCCCCCCC(=O)O)cs3)nc2-c2csc(n2)-c2csc(n2)C(C(O)c2ccccc2)NC(=O)CNC(=O)c2nc1sc2C (stereo not shown) [Compound 20]
query: Please let me know which one, 1 or 2 , has a lower measured MIC value. # reply format: chosen label
result: 2

###

Tested on: Staph. epidermidis L147 ATCC 12228
Experiment: MIC, microbroth dilution
Format: cell-based
Conditions: inocula 10^4 to 10^5 CFU/ml, Iso-Sensitest broth, 18-24 h, 37° C.
Property measured: MIC (microgram/ml)

query: Short answer please: MIC, Staph. epidermidis L147 ATCC 12228, entry CNC(=O)CC1NC(=O)c2nc(sc2COC)C(C(C)C)NC(=O)c2csc(n2)-c2ccc(-c3nc(C(=O)NCCCC=CC(=O)O)cs3)nc2-c2csc(n2)-c2csc(n2)C(C(O)c2ccccc2)NC(=O)CNC(=O)c2nc1sc2C (stereo not shown)
result: 0.25

query: Short answer please: MIC, Staph. epidermidis L147 ATCC 12228, entry CNC(=O)CC1NC(=O)c2nc(sc2COC)C(C(C)C)NC(=O)c2csc(n2)-c2ccc(-c3nc(C(=O)NCCCC(=O)O)cs3)nc2-c2csc(n2)-c2csc(n2)C(C(O)c2ccccc2)NC(=O)CNC(=O)c2nc1sc2C (stereo not shown)
result: 0.25

(P) CNC(=O)CC1NC(=O)c2nc(sc2COC)C(C(C)C)NC(=O)c2csc(n2)-c2ccc(-c3nc(C(=O)NCCCCCC(=O)O)cs3)nc2-c2csc(n2)-c2csc(n2)C(C(O)c2ccccc2)NC(=O)CNC(=O)c2nc1sc2C (stereo not shown)
(Q) CNC(=O)CC1NC(=O)c2nc(sc2COC)C(C(C)C)NC(=O)c2csc(n2)-c2ccc(-c3nc(C(=O)NCC(=O)N4CCCC4C(N)=O)cs3)nc2-c2csc(n2)-c2csc(n2)C(C(O)c2ccccc2)NC(=O)CNC(=O)c2nc1sc2C (stereo not shown)
query: Higher MIC: P or Q ? # reply format: chosen label
result: Q

###

System: Esch. coli L47 SKF 12140
Assay: MIC, microbroth dilution
Format: cell-based, Escherichia coli
Settings: inocula 10^4 to 10^5 CFU/ml, Iso-Sensitest broth, 18-24 h, 37° C.
Property measured: MIC

query: Need MIC of CNC(=O)CC1NC(=O)c2nc(sc2COC)C(C(C)C)NC(=O)c2csc(n2)-c2ccc(-c3nc(C(=O)NCCSCCC(=O)O)cs3)nc2-c2csc(n2)-c2csc(n2)C(C(O)c2ccccc2)NC(=O)CNC(=O)c2nc1sc2C (stereo not drawn) [Compound 39] , thanks.
result: > 128 microgram/ml

query: Need MIC of CNC(=O)CC1NC(=O)c2nc(sc2COC)C(C(C)C)NC(=O)c2csc(n2)-c2ccc(-c3nc(C(=O)NCCOCCC(=O)O)cs3)nc2-c2csc(n2)-c2csc(n2)C(C(O)c2ccccc2)NC(=O)CNC(=O)c2nc1sc2C (stereo not drawn) [Compound 41] , thanks.
result: > 128 microgram/ml

Next:
query: Need MIC of CNC(=O)CC1NC(=O)c2nc(sc2COC)C(C(C)C)NC(=O)c2csc(n2)-c2ccc(-c3nc(C(=O)NC(CC(C)C)C(=O)O)cs3)nc2-c2csc(n2)-c2csc(n2)C(C(O)c2ccccc2)NC(=O)CNC(=O)c2nc1sc2C (stereo not drawn) [Compound 6] , thanks.
result: > 128 microgram/ml

###

Test system: Staph. aureus L165 Tour
Assay: MIC, microbroth dilution
Assay type: cell-based
Conditions: inocula 10^4 to 10^5 CFU/ml, Iso-Sensitest broth, 18-24 h, 37° C.
Method: MIC for Propionibacterium aches, and Bacteroides fragilis are determined by agar dilution (inocula 10^4 /10^5 CFU/spot). MIC for other organisms are determined by microbroth dilution (inocula 10^4 to 10^5 CFU/ml). Incubation times are 18-24 h, except for Haemophilus influenzae, P. acnes, B. fragilis (48 h). All organisms are incubated at 37° C.; H. influenzae is incubated in a 5% CO2 atmosphere, anaerobes in an anaerobic gas mixture. […]
Property measured: MIC (microgram/ml)

query: Need MIC of CNC(=O)CC1NC(=O)c2nc(sc2COC)C(C(C)C)NC(=O)c2csc(n2)-c2ccc(-c3nc(C(=O)NCC=O)cs3)nc2-c2csc(n2)-c2csc(n2)C(C(O)c2ccccc2)NC(=O)CNC(=O)c2nc1sc2C (stereo not shown) , thanks.
result: 0.03

(A) CNC(=O)CC1NC(=O)c2nc(sc2COC)C(C(C)C)NC(=O)c2csc(n2)-c2ccc(-c3nc(C(=O)NCCNCCC(=O)O)cs3)nc2-c2csc(n2)-c2csc(n2)C(C(O)c2ccccc2)NC(=O)CNC(=O)c2nc1sc2C (stereo not shown)
(B) CNC(=O)CC1NC(=O)c2nc(sc2COC)C(C(C)C)NC(=O)c2csc(n2)-c2ccc(-c3nc(C(=O)NC(CCCN)C(=O)O)cs3)nc2-c2csc(n2)-c2csc(n2)C(C(O)c2ccccc2)NC(=O)CNC(=O)c2nc1sc2C.O=C(O)C(F)(F)F (stereo not shown)
query: Please let me know which one, A or B , has a lower measured MIC value. # reply format: chosen label
result: B

###

Test system: Staph. epidermidis L147 ATCC 12228
Test: MIC, microbroth dilution
Type: cell-based
Settings: inocula 10^4 to 10^5 CFU/ml, Iso-Sensitest broth, 18-24 h, 37° C.
Property measured: MIC (microgram/ml)

query: Need MIC of Cc1sc2nc1C(=O)NCC(=O)NC(C(O)c1ccccc1)c1nc(cs1)-c1nc(cs1)-c1nc(-c3nc(C(=O)NCCCCCC(=O)O)cs3)ccc1-c1nc(cs1)C(=O)NC(C(C)C)c1nc(cs1)C(=O)NC2CC(N)=O (stereo not shown) [Compound 43] , thanks.
result: 0.5

(1) CNC(=O)CC1NC(=O)c2nc(sc2COC)C(C(C)C)NC(=O)c2csc(n2)-c2ccc(-c3nc(C(=O)NCCCN)cs3)nc2-c2csc(n2)-c2csc(n2)C(C(O)c2ccccc2)NC(=O)CNC(=O)c2nc1sc2C.O=C(O)C(F)(F)F (stereo not shown) [Compound 36]
(2) CNC(=O)CC1NC(=O)c2nc(sc2COC)C(C(C)C)NC(=O)c2csc(n2)-c2ccc(-c3nc(C(=O)NC(CC(C)C)C(=O)O)cs3)nc2-c2csc(n2)-c2csc(n2)C(C(O)c2ccccc2)NC(=O)CNC(=O)c2nc1sc2C (stereo not shown) [Compound 6]
(3) CNC(=O)CC1NC(=O)c2nc(sc2COC)C(C(C)C)NC(=O)c2csc(n2)-c2ccc(-c3nc(C(=O)NCCOCCC(=O)O)cs3)nc2-c2csc(n2)-c2csc(n2)C(C(O)c2ccccc2)NC(=O)CNC(=O)c2nc1sc2C (stereo not shown) [Compound 41]
query: Exam item: list the entries in increasing order of MIC. Please, when replying, give the labels in the order that was requested.
result: 1, 3, 2
(1: 0.13 microgram/ml, 3: 0.5 microgram/ml, 2: 1 microgram/ml)

###

Test system: Staph. epidermidis L147 ATCC 12228
Assay: MIC, microbroth dilution
Format: cell-based
Details: inocula 10^4 to 10^5 CFU/ml, Iso-Sensitest broth, 18-24 h, 37° C.
Property measured: MIC (microgram/ml)

(1) CNC(=O)CC1NC(=O)c2nc(sc2COC)C(C(C)C)NC(=O)c2csc(n2)-c2ccc(-c3nc(C(=O)NCC(=O)O)cs3)nc2-c2csc(n2)-c2csc(n2)C(C(O)c2ccccc2)NC(=O)CNC(=O)c2nc1sc2C (centres unmarked)
(2) CNC(=O)CC1NC(=O)c2nc(sc2COC)C(C(C)C)NC(=O)c2csc(n2)-c2ccc(-c3nc(C(=O)NCC=O)cs3)nc2-c2csc(n2)-c2csc(n2)C(C(O)c2ccccc2)NC(=O)CNC(=O)c2nc1sc2C (centres unmarked)
query: Please let me know which one, 1 or 2 , has a lower measured MIC value. # reply format: chosen label
result: 2
(2: 0.06 microgram/ml, 1: 1 microgram/ml)
